target: hMPV F protein on hMPV/A virus (human metapneumovirus, subtype A, UniProt Q6WB98 19-539); test: cell-based or functional assay
Sequence (Q6WB98 19-539): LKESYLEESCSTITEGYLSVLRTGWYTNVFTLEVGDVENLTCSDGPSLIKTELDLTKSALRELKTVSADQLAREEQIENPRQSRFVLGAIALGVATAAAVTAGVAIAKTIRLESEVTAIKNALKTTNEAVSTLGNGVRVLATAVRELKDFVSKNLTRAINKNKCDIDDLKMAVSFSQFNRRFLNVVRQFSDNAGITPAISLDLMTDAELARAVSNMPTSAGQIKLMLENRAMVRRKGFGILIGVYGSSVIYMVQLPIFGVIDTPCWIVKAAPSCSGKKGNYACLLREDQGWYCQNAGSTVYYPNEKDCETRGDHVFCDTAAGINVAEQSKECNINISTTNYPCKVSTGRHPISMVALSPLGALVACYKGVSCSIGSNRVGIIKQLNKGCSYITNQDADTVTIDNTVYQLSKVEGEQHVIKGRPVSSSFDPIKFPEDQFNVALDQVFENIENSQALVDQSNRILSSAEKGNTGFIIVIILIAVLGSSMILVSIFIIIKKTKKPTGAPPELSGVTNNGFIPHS
Reported hMPV/A RL Bx Titer (Log 2), microneutralization assay values for the following binders.
Result Type: hMPV/A RL Bx Titer (Log 2), microneutralization assay

Binder | Measured Result
42C2 hIgG1 (antibody, V domains shown, Recombinant form with human IgG1 Fc) VH: QVTLKESGPGILQPSQTLSLTCSFSGFSLSTFGMGVVWTRQPSGKGLEWLAHIWWDDDNYYNPALKSRLTISKDTSKNQVFLKIANADTADTATYYCARIVKVLEQYFDVWGTGTTVTVSS VL: DIMMTQSHKFMSTSVGDRVIFTCKASQDVGTAVAWYQQKSGQSPKLLIYWASTRHTGVPDRFTGSGSGTDFTLTISNVQSEDLADYFCQQYTSYPLTFGAGTKLELKR | 9.5 log2
42C2 (mouse) (antibody, V domains shown, Mouse IgG1 / kappa; also called 42C2 mIgG; 42C2 mAB) VH: QVTLKESGPGILQPSQTLSLTCSFSGFSLSTFGMGVVWTRQPSGKGLEWLAHIWWDDDNYYNPALKSRLTISKDTSKNQVFLKIANADTADTATYYCARIVKVLEQYFDVWGTGTTVTVSS VL: DIMMTQSHKFMSTSVGDRVIFTCKASQDVGTAVAWYQQKSGQSPKLLIYWASTRHTGVPDRFTGSGSGTDFTLTISNVQSEDLADYFCQQYTSYPLTFGAGTKLELK | 9 log2
13E10 (mouse) (antibody, V domains shown, Mouse IgG1 / kappa; also called 13E10 mIgG) VH: EVKLVESGGGLVQPGGSLSLSCAASGFTFTDYYMNWVRQPPGKALEWLGFIRNKDNGYTTEYSASVKGRFTISRDNSQSILYLQMNALRAEDSATYYCTRYYFGYDGDYFDYWGQGTTLTVSS VL: EIVLTQSPTTMAASPGEKITITCSASSSISSNYLHWYQQKAGFSPKLLIYRTSNLASGVPARFSGSGSGTSYSLTIGTMEAEDVATYYCQQGSSLPRTFGGGTKLEIK | 8 log2

Taken from patent US20260092100A1.
